# System: Plasmodium falciparum
# Method Description: GSK_TCMDC: Inhibition of Plasmodium falciparum Dd2 in whole red blood cells, using parasite LDH activity as an index of growth. Test compounds present at 2uM
# Format: functional
Measurement Label: Inhibition

Compound | Inhibition
O=C(CCOc1ccccc1)NCC1CCCO1 (stereo unspecified) | 0%

QUERY: Observed Inhibition on Plasmodium falciparum for CC1=C(C(=O)Nc2ccccc2)C(c2ccc([N+](=O)[O-])cc2)n2ncc(C(=O)Nc3ccccc3)c2N1 (stereo unspecified) , please.
RESULT: 68%

QUERY: Give recorded Inhibition with Plasmodium falciparum for the following compound: "Cl.O=C(C(=O)c1ccc(Nc2ccnc3cc(-c4ccccn4)ccc23)cc1)c1ccccc1"
RESULT: 34%

QUERY: Lab note: need Inhibition for "COc1ccc2nccc([C@@H](O)CN3CCC(NS(=O)(=O)c4cc(Br)c(Br)s4)CC3)c2c1" on Plasmodium falciparum, anyone have it?
RESULT: 36%

---

# System: Plasmodium falciparum
# Method Description: GSK_TCMDC: Inhibition of Plasmodium falciparum 3D7 in whole red blood cells, using parasite LDH activity as an index of growth. Test compounds present at 2uM
# Assay type: functional
Measurement Label: Inhibition (%)
Reply with just the number (in %).

Compound | Inhibition / %
COc1ccc2nccc([C@@H](O)CN3CCC(NCCOc4c(C)cccc4F)CC3)c2c1.O=C(O)C(=O)O | 100

QUERY: Consider the compound "Cc1cc(N[C@@H](C)C(=O)Nc2ccccc2)nc(NCCc2ccc(F)cc2)n1.O=C(O)C(F)(F)F" and give its measured Inhibition.
RESULT: 100

QUERY: Query: Inhibition; subject: CC(Cc1ccc(Cl)cc1)Nc1nc(NC2CCCC2)nc(N2CCC(C#N)(c3ccccc3)CC2)n1 (centres undefined)
RESULT: 99

QUERY: Name the reported Inhibition value associated with the compound "O=C(NCCNc1ccnc2cc(Cl)ccc12)c1ccccc1F"
RESULT: 99

QUERY: For the compound O=C(Nc1ccccc1)OCCOc1ccc(CC2SC(=O)NC2=O)cc1 (centres undefined) , what Inhibition is on record?
RESULT: 100

---

# System: HepG2
# Method Description: GSK_TCMDC: Percent inhibition of human HepG2 cell line. Test compounds present at 10uM.
# Format: functional
Catalogue of Inhibition readings, one per entry.
I only need the number, in %, no unit after it.

Compound | System Tested | Output Unit | Inhibition
O=C(/C=C/c1ccc(Cl)c(Cl)c1)NCCCCCN1CCC(NC(=O)Nc2cc(Cl)cc(Cl)c2)CC1 | HepG2 | % | 98
Cc1cc(N)c2cc(NC(=O)c3ccc4ccccc4c3)ccc2n1.Cl | HepG2 | % | 33
CCCCCC(C)C(C)c1cc(O)c2c(c1)OC(C)(C)CC2(O)c1ccccn1 (stereo not given) | HepG2 | % | 0
CCN1CCc2nc3ccccc3c(C(=O)Nc3ccc(C#N)cc3)c2C1 | HepG2 | % | 24

Turning now to a further compound:
QUERY: For "Cc1ccc(NC(=O)c2ccc(CN3CCCN(CCC(C)C)CC3)cc2)cc1F.O=C(O)C(F)(F)F" , what is its reported Inhibition?
RESULT: 40

---

# Tested on: Plasmodium falciparum
# Method Description: GSK_TCMDC: Inhibition of Plasmodium falciparum Dd2 in whole red blood cells, using parasite LDH activity as an index of growth. Test compounds present at 2uM
# Type: functional
Documented Inhibition across a set of compounds
Note: unit % is implicit; provide only the numeric part.

Compound | Output Unit | Inhibition
C=CCN(c1ccc(OC)cc1)S(=O)(=O)c1ccc(Cl)c(C(=O)Nc2cccc(C#N)c2)c1 | % | 73

QUERY: Given the entry "Cc1ccc(NCc2cccc(F)c2)cc1S(=O)(=O)N[C@@H]1CCN(C#N)C1" , report its measured Inhibition.
RESULT: 83

QUERY: GET /values?readout=Inhibition&item= Cc1cccc2nc(-c3cccc(-c4ccc(CN5CCCC5CN)cc4)c3)[nH]c12.O=C(O)C(F)(F)F (stereo unspecified)
RESULT: 47

QUERY: Dear colleague, I am looking for the recorded Inhibition of the following compound: "CCCNC(=O)CN1CN(c2ccccc2)C2(CCN(C(=O)c3ccc(C(C)(C)C)cc3)CC2)C1=O"
RESULT: 98

QUERY: Entry under review: O=C1COC2(CN1C1CCN(Cc3ccc(O)c(Cl)c3)C1)c1ccccc1-c1ccccc12.O=CO (stereo unspecified) . Reported Inhibition?
RESULT: 63

QUERY: # query: Inhibition of entry "O=C(NCC1CCN(C/C=C/c2ccccc2)CC1)Nc1ccc(Oc2ccccc2)cc1"
RESULT: 11

QUERY: Any idea what Inhibition was measured for "CN(Cc1ccc(NC(=O)CCC2CCN(C(=O)/C=C/c3ccc(Cl)c(Cl)c3)CC2)cc1)C1CCOCC1" ?
RESULT: 2

QUERY: Which Inhibition value is on record for "COc1ccc(O)cc1Cc1cnc2nc(N)nc(N)c2c1C" ?
RESULT: 97

QUERY: Which value of Inhibition has been reported for Cc1ccc(C2CC(=O)CC(c3ccccn3)C2[N+](=O)[O-])cc1 (stereo unspecified) in the records?
RESULT: 2

QUERY: Any idea what Inhibition was measured for "Cc1cccc2nc(-c3cccc(-c4cccc(NC(=O)Nc5ccc(Cl)cc5)c4)c3)[nH]c12" ?
RESULT: 94

QUERY: Please look up its Inhibition: "C(=N\Nc1nccc2sc(-c3cccnc3)cc12)/c1ccncc1"
RESULT: 94
